Where do these numbers come from? They come from PubChem BioAssay AID1963435.

- Test system: PANC-1 complex spheroid growth, percent test/control
- Protocol summary: Anticancer human tumor PANC-1 cell line growth inhibition [Asc];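 note: spheroids exposed to agents for 7 days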;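 for viability, T/C: percent viability relative to DMSO vehicle wells taken as 100%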
- Condition: second compound 3 µM; first compound 0.1 µM; stronger effect = lower value
Measured parameter: viability, T/C (%)
API: value field is a number in %; no unit string.

// below: answered molecules
INSERT INTO results (molecule, test_result) VALUES
  ('O=C(c1ccc(F)c(F)c1Nc1ccc(I)cc1F)N1CC(O)([C@@H]2CCCCN2)C1 + CCN1C(C(=O)NC23CCC(C(=O)O)(CC2)CC3)C(c2cccc(Cl)c2F)C2(C(=O)Nc3cc(Cl)ccc32)C12CCCCC2', 105),
  ('Cn1ncnc1[C@H]1c2n[nH]c(=O)c3cc(F)cc(c23)N[C@@H]1c1ccc(F)cc1 + CCN1C(C(=O)NC23CCC(C(=O)O)(CC2)CC3)C(c2cccc(Cl)c2F)C2(C(=O)Nc3cc(Cl)ccc32)C12CCCCC2', 106),
  ('NC1CCC(NC2CC2c2ccccc2)CC1 (stereo not given) + CCN1C(C(=O)NC23CCC(C(=O)O)(CC2)CC3)C(c2cccc(Cl)c2F)C2(C(=O)Nc3cc(Cl)ccc32)C12CCCCC2', 110);

Item under review: C=C(F)C(=O)N1CCN(c2nc(OCC3CCCN3C)nc3c2CCN(c2cccc4cccc(Cl)c24)C3)CC1CC#N (stereo not given) + CCN1C(C(=O)NC23CCC(C(=O)O)(CC2)CC3)C(c2cccc(Cl)c2F)C2(C(=O)Nc3cc(Cl)ccc32)C12CCCCC2 . Reported viability, T/C?
108

Item under review: C#Cc1c(F)ccc2cc(O)cc(-c3ncc4c(N5CC6CCC(C5)N6)nc(OCC56CCCN5CC(F)C6)nc4c3F)c12 (stereo not given) + CCN1C(C(=O)NC23CCC(C(=O)O)(CC2)CC3)C(c2cccc(Cl)c2F)C2(C(=O)Nc3cc(Cl)ccc32)C12CCCCC2 . Reported viability, T/C?
91.7

* * *

The following molecules are listed with their measured IC50 values.
- Tested on: PANC-1 complex spheroid growth, percent test/control
- Protocol summary: Anticancer human tumor PANC-1 cell line growth inhibition [Asc];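 note: spheroids exposed to agents for 7 days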
- Condition: curve of first compound; second compound 0.01 µM

// below: answered molecules
INSERT INTO measurements (molecule, test_result) VALUES
  ('CCN1C(C(=O)NC23CCC(C(=O)O)(CC2)CC3)C(c2cccc(Cl)c2F)C2(C(=O)Nc3cc(Cl)ccc32)C12CCCCC2 (stereo not drawn) + CNC(C)C(=O)NC1CN(S(=O)(=O)c2cccc(S(=O)(=O)N3CCC4CCC(C(=O)NC(c5ccccc5)c5ccccc5)N4C(=O)C(NC(=O)C(C)NC)C3)c2)CCC2CCC(C(=O)NC(c3ccccc3)c3ccccc3)N2C1=O', '> 3000 nM'),
  ('NC(=O)C(=Cn1cnc(-c2cc(C(F)(F)F)cc(C(F)(F)F)c2)n1)c1cncnc1 + CNC(C)C(=O)NC1CN(S(=O)(=O)c2cccc(S(=O)(=O)N3CCC4CCC(C(=O)NC(c5ccccc5)c5ccccc5)N4C(=O)C(NC(=O)C(C)NC)C3)c2)CCC2CCC(C(=O)NC(c3ccccc3)c3ccccc3)N2C1=O', '> 300 nM');

Item under review: O=C(c1ccc(F)c(F)c1Nc1ccc(I)cc1F)N1CC(O)([C@@H]2CCCCN2)C1 + CNC(C)C(=O)NC1CN(S(=O)(=O)c2cccc(S(=O)(=O)N3CCC4CCC(C(=O)NC(c5ccccc5)c5ccccc5)N4C(=O)C(NC(=O)C(C)NC)C3)c2)CCC2CCC(C(=O)NC(c3ccccc3)c3ccccc3)N2C1=O . Reported IC50?
> 1000 nM
